Reference source for all entries: patent EP3409295A1

details: intravenous administration, 10 mg/kg, SD rats
Entries and their measured Vz follow.

Would you please look over these solved cases?
CN1CC[C@]23c4c5ccc(O)c4O[C@H]2[C@@H](OCCOCCOCCOCCOCCOCCOCCOCCO[C@H]2C=C[C@H]4[C@H]6Cc7ccc(O)c8c7[C@@]4(CCN6C)[C@H]2O8)C=C[C@H]3[C@H]1C5 125.2 L/kg
CN1CC[C@]23c4c5ccc(O)c4O[C@H]2[C@@H](OCCOCCOCCOCCOCCOCCO[C@H]2C=C[C@H]4[C@H]6Cc7ccc(O)c8c7[C@@]4(CCN6C)[C@H]2O8)C=C[C@H]3[C@H]1C5 57.7 L/kg
CN1CC[C@]23c4c5ccc(O)c4O[C@H]2[C@@H](OCCOCCOCCOCCO[C@H]2C=C[C@H]4[C@H]6Cc7ccc(O)c8c7[C@@]4(CCN6C)[C@H]2O8)C=C[C@H]3[C@H]1C5 94.3 L/kg
CN1CC[C@]23c4c5ccc(O)c4O[C@H]2[C@@H](OCCOCCOCCOCCOCCOCCOCCOCCOCCO[C@H]2C=C[C@H]4[C@H]6Cc7ccc(O)c8c7[C@@]4(CCN6C)[C@H]2O8)C=C[C@H]3[C@H]1C5 92 L/kg
CN1CC[C@]23c4c5ccc(O)c4O[C@H]2[C@@H](OCCO[C@H]2C=C[C@H]4[C@H]6Cc7ccc(O)c8c7[C@@]4(CCN6C)[C@H]2O8)C=C[C@H]3[C@H]1C5 72 L/kg
CN1CC[C@]23c4c5ccc(O)c4O[C@H]2[C@@H](OCCOCCOCCOCCOCCO[C@H]2C=C[C@H]4[C@H]6Cc7ccc(O)c8c7[C@@]4(CCN6C)[C@H]2O8)C=C[C@H]3[C@H]1C5 84 L/kg
CN1CC[C@]23c4c5ccc(O)c4O[C@H]2[C@@H](OCCOCCOCCO[C@H]2C=C[C@H]4[C@H]6Cc7ccc(O)c8c7[C@@]4(CCN6C)[C@H]2O8)C=C[C@H]3[C@H]1C5 43 L/kg

# next compound below
Memo: CN1CC[C@]23c4c5ccc(O)c4O[C@H]2[C@@H](OCCOCCO[C@H]2C=C[C@H]4[C@H]6Cc7ccc(O)c8c7[C@@]4(CCN6C)[C@H]2O8)C=C[C@H]3[C@H]1C5 , reported Vz: 52.1 L/kg
